experiment: Plasma protein binding (equilibrium dialysis); format: in vitro ADME; conditions: female, CD1; mouse plasma, equilibrium dialysis; read-out: PPB
Property name: fraction unbound at 5 h, 10 μg g^−1

{"Compound": "O=c1[nH]c2ncc(N3CCCCC3)cc2n1C1CCCCC1 [Compound 56]", "fraction unbound at 5 h, 10 μg g^−1": 0.11}

[I] O=c1[nH]c2ncc(-c3ccccc3F)nc2n1C1CCCCC1 [Compound 26]
[II] O=c1[nH]c2ncc(-c3ccccc3)cc2n1C1CCCCC1 [Compound 51]
*Q* Hi team, can someone confirm which has the larger fraction unbound at 5 h, 10 μg g^−1: I or II ? Thanks. Write the label of whichever entry you select.
*A* II
(II: 0.029, I: 0.007)
